These measurements were taken from ChEMBL document CHEMBL3351460.

# assayExplanation: Drug metabolism in human liver microsomes assessed as glucuronidation of compound measured as compound remaining after 60 mins by LC/MS analysis
# Type: ADME
# conditionLabel: read-out: Stability
experimentalReadout: remaining at 1 h (%)
Please give a number only; it is taken to be in %.

Lab note: `O=c1[nH]nc(CCc2cc(F)cc(F)c2)cc1O` gave remaining at 1 h of 62

----------
# assayExplanation: Drug metabolism in rat liver microsomes assessed as glucuronidation of compound measured as compound remaining after 30 mins by LC/MS analysis
# Assay type: ADME
# conditionLabel: read-out: Stability
Listed compounds paired with reported remaining at 0.5 h

Here are 2 compounds together with their reported answers.
givenSmiles	valueObserved
O=c1[nH]nc(CCc2cc(F)cc(F)c2)cc1O	69%
O=c1[nH]c2cc(F)ccc2cc1O	< 1%

Kindly consider the entry below.
Lab note: `O=c1[nH]c2cccc(Cl)c2cc1O` gave remaining at 0.5 h of < 1%

----------
# assayExplanation: Drug metabolism in mouse liver microsomes assessed as glucuronidation of compound measured as compound remaining after 60 mins by LC/MS analysis
# Format: ADME
# conditionLabel: read-out: Stability
experimentalReadout: remaining at 1 h (%)
Please give a number only; it is taken to be in %.

Here are 2 compounds together with their reported answers.
givenSmiles	remaining at 1 h, %
O=c1[nH]nc(CCc2cc(F)cc(F)c2)cc1O	59
O=C(O)c1cc2sccc2[nH]1	100

Lab note: `Cc1cc(C(=O)O)n[nH]1` gave remaining at 1 h of 78

Lab note: `Oc1noc2cc(Cl)ccc12` gave remaining at 1 h of 33

Lab note: `O=C(O)c1cc(CCc2ccc(Cl)cc2)n[nH]1` gave remaining at 1 h of 102

Lab note: `O=c1[nH]cc(CCc2ccccc2)cc1O` gave remaining at 1 h of 3

Lab note: `O=c1cc(CSc2ccc(Cl)c(Cl)c2)occ1O` gave remaining at 1 h of 5

----------
# assayExplanation: Oral bioavailability in CD1 mouse at 30 mg/kg
# Type: ADME, organism-based
# conditionLabel: in vivo
experimentalReadout: bioavailability
Param answer (str): number followed by unit.

Lab note: `O=c1[nH]nc(CCc2cc(F)cc(F)c2)cc1O` gave bioavailability of 31%

----------
# assayExplanation: Plasma clearance in CD1 mouse at 30 mg/kg, po and 10 mg/kg, iv
# Assay type: ADME, organism-based
experimentalReadout: clearance (mL/min/kg)
Please give a number only; it is taken to be in mL/min/kg.

Lab note: `O=c1[nH]nc(CCc2cc(F)cc(F)c2)cc1O` gave clearance of 39

----------
# experimentalSystem: D-amino-acid oxidase (Homo sapiens)
# Sequence (P14920 whole entry): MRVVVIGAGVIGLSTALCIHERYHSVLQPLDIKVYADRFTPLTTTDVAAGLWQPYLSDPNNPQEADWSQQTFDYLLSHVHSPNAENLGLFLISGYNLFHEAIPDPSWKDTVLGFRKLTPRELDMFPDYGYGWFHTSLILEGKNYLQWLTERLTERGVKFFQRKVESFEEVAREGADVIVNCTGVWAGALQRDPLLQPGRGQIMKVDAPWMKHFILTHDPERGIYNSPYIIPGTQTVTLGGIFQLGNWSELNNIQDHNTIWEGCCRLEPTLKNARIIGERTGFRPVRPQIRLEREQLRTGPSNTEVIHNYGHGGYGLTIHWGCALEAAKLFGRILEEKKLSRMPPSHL
experimentalReadout: IC50

Lab note: `O=C(O)c1cc(CCc2ccc(Cl)cc2)n[nH]1` gave IC50 of < 1000 nM

----------
# assayExplanation: Drug metabolism in mouse liver microsomes assessed as glucuronidation of compound measured as compound remaining after 30 mins by LC/MS analysis
# Assay type: ADME
# conditionLabel: read-out: Stability
Listed compounds paired with reported remaining at 0.5 h
Please give a number only; it is taken to be in %.

givenSmiles	remaining at 0.5 h / %
O=c1[nH]cc(CCc2ccccc2)cc1O	5

Kindly consider the entry below.
Lab note: `Cc1cc(C(=O)O)n[nH]1` gave remaining at 0.5 h of 92
